# experimental.target: menin (Homo sapiens, UniProt O00255, T541A)
# Construct: Menin (a.a. 1-610-6×his tag)
# Sequence (O00255 with tags, fused parts or gaps T541A): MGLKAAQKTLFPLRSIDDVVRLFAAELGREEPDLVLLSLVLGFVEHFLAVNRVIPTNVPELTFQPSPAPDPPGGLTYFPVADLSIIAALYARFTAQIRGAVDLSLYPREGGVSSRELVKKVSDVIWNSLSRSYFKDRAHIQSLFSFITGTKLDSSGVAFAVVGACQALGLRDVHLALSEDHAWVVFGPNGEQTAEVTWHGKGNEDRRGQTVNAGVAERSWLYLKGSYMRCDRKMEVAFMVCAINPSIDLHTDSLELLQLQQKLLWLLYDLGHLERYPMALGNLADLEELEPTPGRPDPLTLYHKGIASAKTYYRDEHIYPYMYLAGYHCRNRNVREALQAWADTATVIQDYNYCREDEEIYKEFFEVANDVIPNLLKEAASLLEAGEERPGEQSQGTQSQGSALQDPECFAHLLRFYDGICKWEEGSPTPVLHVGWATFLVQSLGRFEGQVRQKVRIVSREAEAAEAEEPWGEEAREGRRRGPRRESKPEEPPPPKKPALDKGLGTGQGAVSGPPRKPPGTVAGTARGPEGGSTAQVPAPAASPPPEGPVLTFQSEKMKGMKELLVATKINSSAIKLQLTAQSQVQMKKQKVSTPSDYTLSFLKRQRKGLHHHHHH
# method.description: Menin/MLL homogenous time-resolved fluorescence (HTRF) assay
# Format: binding
# particulars: location 2; read-out: (2) location 2 Menin HTRF assay (IC50 (nM))
reported.metric: IC50 (nM)
Give bare numbers, in nM.

Consider the worked cases shown below.
[[record]]
compound = "COc1nc(N2CCC3(CC(NCc4ccccc4)C3)C2)c2cc(CC(F)(F)F)sc2n1 (single isomer, unassigned) [Compound 60]"
unit_info = "nM"
value_observed = 23.2

[[record]]
compound = "Cn1cnc2ccc(NC3CC4(CCN(c5ncnc6sc(CC(F)(F)F)cc56)C4)C3)cc21 (mixture of isomers)"
unit_info = "nM"
value_observed = 210

[[record]]
compound = "CN1CCC(Oc2cc(NC3CC4(CCN(c5ncnc6sc(CC(F)(F)F)cc56)C4)C3)ccc2C#N)CC1 (stereo not drawn)"
unit_info = "nM"
value_observed = 6.8

[[record]]
compound = "CNS(=O)(=O)c1ccc(N[C@@H]2CCC3(C2)CN(c2ncnc4sc(CC(F)(F)F)cc24)C3)cc1 (single isomer, unassigned)"
unit_info = "nM"
value_observed = 231

[[record]]
compound = "O=C(c1ccc(NC2CC3(CCN(c4ncnc5sc(CC(F)(F)F)cc45)C3)C2)cc1)N1CCS(=O)(=O)CC1 (single isomer, unassigned) [Compound 411]"
unit_info = "nM"
value_observed = 101


# IC50 (compound: O=C(c1ccc(NC2CC3(CCN(c4ncnc5sc(CC(F)(F)F)cc45)C3)C2)cc1)N1CCOCC1 (single isomer, unassigned) [Compound 335] ) is 5.2

* * *

Answer each item with its documented IC50.
# experimental.target: menin (Homo sapiens, UniProt O00255, T541A)
# Construct: Menin (a.a. 1-610-6×his tag)
# Sequence (O00255 with tags, fused parts or gaps T541A): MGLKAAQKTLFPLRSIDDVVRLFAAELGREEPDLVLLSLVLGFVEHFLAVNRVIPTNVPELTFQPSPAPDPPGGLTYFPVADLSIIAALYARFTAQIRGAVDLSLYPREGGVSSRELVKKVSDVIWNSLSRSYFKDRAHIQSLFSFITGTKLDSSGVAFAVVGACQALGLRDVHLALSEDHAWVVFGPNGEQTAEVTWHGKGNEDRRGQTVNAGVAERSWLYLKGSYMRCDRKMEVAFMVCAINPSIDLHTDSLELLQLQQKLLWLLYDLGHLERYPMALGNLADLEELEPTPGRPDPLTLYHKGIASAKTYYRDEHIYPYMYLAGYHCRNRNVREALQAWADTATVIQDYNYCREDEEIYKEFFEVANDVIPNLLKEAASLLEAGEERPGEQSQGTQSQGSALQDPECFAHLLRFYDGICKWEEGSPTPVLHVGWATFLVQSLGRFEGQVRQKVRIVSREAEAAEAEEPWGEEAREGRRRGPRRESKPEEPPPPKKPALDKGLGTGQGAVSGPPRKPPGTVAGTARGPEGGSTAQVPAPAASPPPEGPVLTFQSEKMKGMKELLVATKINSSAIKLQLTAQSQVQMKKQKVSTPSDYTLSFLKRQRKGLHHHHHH
# method.description: Menin/MLL homogenous time-resolved fluorescence (HTRF) assay
# Assay type: binding
# particulars: location 2; read-out: (2) location 2 Menin HTRF assay (IC50 (nM))

Here is how some compounds turned out for IC50.
[[record]]
compound = "CS(=O)(=O)N1CCN(CCNC(=O)c2ccc(NC3CC4(CCN(c5ncnc6sc(CC(F)(F)F)cc56)C4)C3)cc2)CC1 (single isomer, unassigned) [Compound 189]"
experimental_target = "menin (Homo sapiens, UniProt O00255, T541A)"
reported_metric = "IC50"
value_observed = "143 nM"

[[record]]
compound = "CN1CCN(C(=O)c2ccc(NC3CC4(CCN(c5ncnc6sc(CC(F)(F)F)cc56)C4)C3)cc2)CC1 (mixture of isomers) [Compound 336]"
experimental_target = "menin (Homo sapiens, UniProt O00255, T541A)"
reported_metric = "IC50"
value_observed = "297 nM"

[[record]]
compound = "O=S(=O)(NC1CCC2(CCN(c3ncnc4sc(CC(F)(F)F)cc34)C2)C1)c1ccccc1 (stereo not drawn) [Compound 39]"
experimental_target = "menin (Homo sapiens, UniProt O00255, T541A)"
reported_metric = "IC50"
value_observed = "1440 nM"

[[record]]
compound = "N#CCc1cccc(S(=O)(=O)NC2CCC3(CCN(c4ncnc5sc(CC(F)(F)F)cc45)C3)C2)c1 (stereo not drawn) [Compound 124]"
experimental_target = "menin (Homo sapiens, UniProt O00255, T541A)"
reported_metric = "IC50"
value_observed = "2530 nM"

[[record]]
compound = "N#CCc1ccc(NC2CC3(CCN(c4ncnc5sc(CC(F)(F)F)cc45)C3)C2)cc1 (single isomer, unassigned) [Compound 306]"
experimental_target = "menin (Homo sapiens, UniProt O00255, T541A)"
reported_metric = "IC50"
value_observed = "78.2 nM"


The compound CNc1nc(N2CCC3(CC(Nc4ccc(C#N)cn4)C3)C2)c2cc(CC(F)(F)F)sc2n1 (mixture of isomers) [Compound 271] showed IC50 equal to 22.5 nM
